half-life listing for selected compounds.
- experiment-description: The compound was evaluated for its half-life period
- Type: ADME

{"compound-structure": "COc1ccccc1C(=O)N[C@]1(OC)C(=O)N2C(C(=O)OCc3cccc(C)c3)=C(CSc3nnnn3CC(=O)O)CO[C@@H]21", "output-unit": "h", "relation-symbol": "<", "half-life": 0.167}
{"compound-structure": "CCOc1ccccc1C(=O)N[C@]1(OC)C(=O)N2C(C(=O)OCc3ccc(C(=O)O)cc3)=C(CSc3nnnn3C)CO[C@@H]21", "output-unit": "h", "relation-symbol": "=", "half-life": 1.5}

----------
- experiment-description: The percent remaining in human plasma after 30 min was determined
- Assay type: ADME, cell-free
- assay-setup: read-out: Stability
Decision: remaining at 0.5 h beneath 40% gives Condition met; remaining at 0.5 h meeting or exceeding 40% gives Condition not met.

{"compound-structure": "CCCOc1ccccc1C(=O)N[C@]1(OC)C(=O)N2C(C(=O)OCc3ccc(C(=O)O)cc3)=C(CSc3nnnn3C)CO[C@@H]21", "group-label": "Condition met"}
{"compound-structure": "CO[C@@]1(NC(=O)Cc2ccc(N(C)C)cc2)C(=O)N2C(C(=O)OC(c3ccccc3)c3ccccc3)=C(CSc3nnnn3C)CO[C@@H]21", "group-label": "Condition not met"}
{"compound-structure": "CO[C@@]1(NC(=O)Cc2ccc(O)cc2)C(=O)N2C(C(=O)OCc3cccc(C)c3)=C(CSc3nnc(C)s3)CO[C@@H]21", "group-label": "Condition met"}
{"compound-structure": "CO[C@@]1(NC(=O)Cc2ccc(O)cc2)C(=O)N2C(C(=O)OCc3cccc(C)c3)=C(CSc3nnnn3CC(=O)O)CO[C@@H]21", "group-label": "Condition met"}
{"compound-structure": "CO[C@@]1(NC(=O)c2ccccc2OC(C)C)C(=O)N2C(C(=O)OCc3ccc(C(=O)O)cc3)=C(CSc3nnnn3C)CO[C@@H]21", "group-label": "Condition not met"}

----------
- experimental-system: Neutrophil elastase (Homo sapiens)
- Sequence (P08246 whole entry): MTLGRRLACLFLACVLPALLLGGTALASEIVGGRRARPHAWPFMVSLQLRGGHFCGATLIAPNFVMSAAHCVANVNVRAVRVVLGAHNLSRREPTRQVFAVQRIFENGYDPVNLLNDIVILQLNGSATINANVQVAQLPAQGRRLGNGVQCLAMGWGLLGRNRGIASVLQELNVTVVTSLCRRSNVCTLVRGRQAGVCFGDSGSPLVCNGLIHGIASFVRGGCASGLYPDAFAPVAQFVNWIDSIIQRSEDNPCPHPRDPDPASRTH
- experiment-description: Inhibitory concentration was measured against elastase

{"compound-structure": "CCOc1ccccc1C(=O)N[C@]1(OC)C(=O)N2C(C(=O)OCc3ccc(C(=O)O)cc3)=C(CSc3nnnn3C)CO[C@@H]21", "experimental-system": "Neutrophil elastase (Homo sapiens)", "IC50": "9.5 µM"}

----------
- experimental-system: UniProt:Q01177
- Sequence (Q01177 97-581 limits assumed): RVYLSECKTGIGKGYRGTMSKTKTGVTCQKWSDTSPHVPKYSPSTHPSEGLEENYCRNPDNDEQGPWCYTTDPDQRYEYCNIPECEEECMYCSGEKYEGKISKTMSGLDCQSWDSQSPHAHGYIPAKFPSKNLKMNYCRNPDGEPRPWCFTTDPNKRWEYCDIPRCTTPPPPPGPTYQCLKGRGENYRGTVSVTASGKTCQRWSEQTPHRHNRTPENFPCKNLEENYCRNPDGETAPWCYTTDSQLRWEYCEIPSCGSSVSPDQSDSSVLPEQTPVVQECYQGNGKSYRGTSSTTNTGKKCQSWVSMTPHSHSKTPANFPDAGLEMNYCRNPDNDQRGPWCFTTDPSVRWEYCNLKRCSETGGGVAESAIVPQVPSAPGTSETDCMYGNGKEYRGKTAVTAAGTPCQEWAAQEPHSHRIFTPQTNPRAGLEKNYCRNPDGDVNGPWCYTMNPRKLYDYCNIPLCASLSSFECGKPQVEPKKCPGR
- Sequence (Q01177 582-812 limits assumed): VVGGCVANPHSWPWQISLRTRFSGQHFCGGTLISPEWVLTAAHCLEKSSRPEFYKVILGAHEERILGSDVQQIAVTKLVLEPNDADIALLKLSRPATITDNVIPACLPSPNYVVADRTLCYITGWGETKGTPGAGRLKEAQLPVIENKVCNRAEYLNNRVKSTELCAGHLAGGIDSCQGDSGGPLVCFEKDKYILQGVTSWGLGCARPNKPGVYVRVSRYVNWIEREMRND

{"compound-structure": "CCOc1ccccc1C(=O)N[C@]1(OC)C(=O)N2C(C(=O)OCc3ccc(C(=O)O)cc3)=C(CSc3nnnn3C)CO[C@@H]21", "IC50": "> 10 µM"}

----------
- experiment-description: The percent remaining in human plasma after 30 min was determined
- Type: ADME, cell-free
- assay-setup: read-out: Stability

{"compound-structure": "COc1ccccc1C(=O)N[C@]1(OC)C(=O)N2C(C(=O)OCc3ccc(C(=O)O)cc3)=C(CSc3nnnn3C)CO[C@@H]21", "remaining at 0.5 h (%)": 26}
{"compound-structure": "CCOc1ccccc1C(=O)N[C@]1(OC)C(=O)N2C(C(=O)OCc3ccc(C(=O)O)cc3)=C(CSc3nnnn3C)CO[C@@H]21", "remaining at 0.5 h (%)": 87}
{"compound-structure": "CO[C@@]1(NC(=O)Cc2ccc(O)cc2)C(=O)N2C(C(=O)OCc3cccc(C)c3)=C(CSc3nnnn3C)CO[C@@H]21", "remaining at 0.5 h (%)": 10}
{"compound-structure": "COc1ccccc1C(=O)N[C@]1(OC)C(=O)N2C(C(=O)OCc3cccc(C)c3)=C(CSc3nnnn3CC(=O)O)CO[C@@H]21", "remaining at 0.5 h (%)": 11}
{"compound-structure": "CO[C@@]1(NC(=O)c2ccccc2Oc2ccccc2)C(=O)N2C(C(=O)OCc3ccc(C(=O)O)cc3)=C(CSc3nnnn3C)CO[C@@H]21", "remaining at 0.5 h (%)": 63}
{"compound-structure": "COc1ccccc1C(=O)N[C@]1(OC)C(=O)N2C(C(=O)OC(c3ccccc3)c3ccccc3)=C(CSc3nnnn3C)CO[C@@H]21", "remaining at 0.5 h (%)": 73}
{"compound-structure": "CO[C@@]1(NC(=O)Cc2ccc(O)cc2)C(=O)N2C(C(=O)OCc3cccc(C)c3)=C(C)CO[C@@H]21", "remaining at 0.5 h (%)": 59}

----------
pIC50: −log10 of the molar value.
Parameter 'readout' = pIC50; parameter 'system' = Chymase (Homo sapiens).
Sequence (P23946 whole entry): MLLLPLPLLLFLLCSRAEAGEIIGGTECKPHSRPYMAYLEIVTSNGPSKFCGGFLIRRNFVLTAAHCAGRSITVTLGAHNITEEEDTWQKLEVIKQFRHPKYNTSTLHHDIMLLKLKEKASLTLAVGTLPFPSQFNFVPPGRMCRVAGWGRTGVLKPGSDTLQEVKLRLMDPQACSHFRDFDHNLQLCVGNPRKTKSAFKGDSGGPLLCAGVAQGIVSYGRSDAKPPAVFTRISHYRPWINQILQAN
measure-name: pIC50

{"compound-structure": "CCOc1ccccc1C(=O)N[C@]1(OC)C(=O)N2C(C(=O)OCc3ccc(C(=O)O)cc3)=C(CSc3nnnn3C)CO[C@@H]21", "experimental-system": "Chymase (Homo sapiens)", "relation-symbol": "=", "observed": 7.57}
{"compound-structure": "CO[C@@]1(NC(=O)Cc2ccc(O)cc2)C(=O)N2C(C(=O)OCc3cccc(C)c3)=C(C)CO[C@@H]21", "experimental-system": "Chymase (Homo sapiens)", "relation-symbol": "<", "observed": 5.00}

Reference source for all entries: ChEMBL document CHEMBL1132791
